STUDY SYSTEM: F508delCFTR (Homo sapiens, UniProt P13569, DEL508-508)
Construct: expressed in transfected cells; host or cells: CFBE41o- human lung derived epithelial cells (CFBE41o-F508delCFTR-HRP), doxycycline-inducible
Sequence (P13569 with tags, fused parts or gaps DEL508-508): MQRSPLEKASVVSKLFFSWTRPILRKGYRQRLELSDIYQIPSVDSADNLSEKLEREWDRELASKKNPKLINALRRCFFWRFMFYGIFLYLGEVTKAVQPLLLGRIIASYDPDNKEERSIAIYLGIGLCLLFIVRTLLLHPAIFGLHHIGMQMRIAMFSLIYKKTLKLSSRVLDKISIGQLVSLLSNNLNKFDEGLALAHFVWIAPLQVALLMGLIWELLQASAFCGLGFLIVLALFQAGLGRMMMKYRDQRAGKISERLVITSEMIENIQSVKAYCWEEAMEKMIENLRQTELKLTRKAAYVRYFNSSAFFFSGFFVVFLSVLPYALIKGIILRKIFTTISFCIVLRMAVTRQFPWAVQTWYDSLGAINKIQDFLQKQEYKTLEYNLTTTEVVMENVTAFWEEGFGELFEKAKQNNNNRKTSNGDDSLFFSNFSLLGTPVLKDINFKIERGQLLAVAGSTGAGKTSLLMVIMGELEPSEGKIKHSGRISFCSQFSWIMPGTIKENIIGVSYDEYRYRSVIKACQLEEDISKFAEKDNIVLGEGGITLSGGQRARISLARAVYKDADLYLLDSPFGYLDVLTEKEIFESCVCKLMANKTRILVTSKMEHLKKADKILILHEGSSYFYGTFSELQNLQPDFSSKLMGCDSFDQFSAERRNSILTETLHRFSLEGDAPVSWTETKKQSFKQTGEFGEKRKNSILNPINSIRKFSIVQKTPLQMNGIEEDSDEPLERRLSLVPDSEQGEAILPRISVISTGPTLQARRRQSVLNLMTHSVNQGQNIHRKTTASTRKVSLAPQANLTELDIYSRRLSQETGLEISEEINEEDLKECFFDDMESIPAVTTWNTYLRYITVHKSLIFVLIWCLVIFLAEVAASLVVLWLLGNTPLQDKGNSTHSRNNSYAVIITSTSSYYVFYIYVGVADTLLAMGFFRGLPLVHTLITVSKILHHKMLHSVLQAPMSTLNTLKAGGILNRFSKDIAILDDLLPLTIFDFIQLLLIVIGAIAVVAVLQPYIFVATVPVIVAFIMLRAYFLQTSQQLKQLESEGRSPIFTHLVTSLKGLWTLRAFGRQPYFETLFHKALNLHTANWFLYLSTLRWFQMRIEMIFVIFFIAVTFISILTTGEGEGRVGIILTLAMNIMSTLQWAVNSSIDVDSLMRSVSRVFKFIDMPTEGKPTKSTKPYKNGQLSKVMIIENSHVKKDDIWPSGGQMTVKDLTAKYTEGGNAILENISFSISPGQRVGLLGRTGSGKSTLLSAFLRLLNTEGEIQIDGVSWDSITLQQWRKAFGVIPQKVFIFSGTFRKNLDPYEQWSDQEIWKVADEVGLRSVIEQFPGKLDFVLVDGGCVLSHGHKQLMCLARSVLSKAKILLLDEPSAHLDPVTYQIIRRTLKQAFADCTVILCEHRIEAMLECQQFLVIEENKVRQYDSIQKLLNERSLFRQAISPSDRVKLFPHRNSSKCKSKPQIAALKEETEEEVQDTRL
EXPERIMENTAL DETAILS: Cell Surface Expression-Horse Radish Peroxidase (CSE-HRP) Assay
Format: cell-based
CONDITION NOTES: test compound alone, without co-corrector; read-out: EC50 (without co-corrector)
pEC50: −log10 of the molar value.

| LINE NOTATION | STUDY SYSTEM | pEC50 |
| --- | --- | --- |
| COc1ccc(C2(OC)CCC2)cc1C1(C(=O)NS(=O)(=O)c2cccc3nc(C)ccc23)CC1 | F508delCFTR (Homo sapiens, UniProt P13569, DEL508-508) | 5.00 to 5.52 |
| Cc1ccc(O[C@@H]2CCOC2)c(C2(C(=O)NS(=O)(=O)c3cccc4ncccc34)CC2)c1 | F508delCFTR (Homo sapiens, UniProt P13569, DEL508-508) | > 5.52 |
| COCC(C)(C)c1ccc(OC)c(C2(C(=O)NS(=O)(=O)c3cccc4ncccc34)CC2)c1 | F508delCFTR (Homo sapiens, UniProt P13569, DEL508-508) | > 5.52 |
| CC(C)COc1cnc(C2CC2)c(C2(C(=O)NS(=O)(=O)c3cccc4ncccc34)CC2)c1 | F508delCFTR (Homo sapiens, UniProt P13569, DEL508-508) | > 5.52 |
| COc1ccc(C2(C(=O)NS(=O)(=O)c3ccccc3)CC2)cc1 | F508delCFTR (Homo sapiens, UniProt P13569, DEL508-508) | < 5.00 |
| COC(=O)c1ccc(OC)c(C2(C(=O)NS(=O)(=O)c3cccc4ccccc34)CC2)c1 | F508delCFTR (Homo sapiens, UniProt P13569, DEL508-508) | 5.00 to 5.52 |
| CNC1(c2ccc(OC)c(C3(C(=O)NS(=O)(=O)c4cccc5ncccc45)CC3)c2)CC1 | F508delCFTR (Homo sapiens, UniProt P13569, DEL508-508) | < 5.00 |
| CC(C)(C)OC(=O)N1CCC(S(=O)(=O)NC(=O)C2(c3ccc(Cl)cc3Cl)CC2)CC1 | F508delCFTR (Homo sapiens, UniProt P13569, DEL508-508) | < 5.00 |
| Cc1ccc(OC2COC2)c(C2(C(=O)NS(=O)(=O)c3cccc4nc(N)ccc34)CC2)c1 | F508delCFTR (Homo sapiens, UniProt P13569, DEL508-508) | 5.00 to 5.52 |
| COc1ncc(C2CCC2)cc1C1(C(=O)NS(=O)(=O)c2cccc3cnn(C)c23)CC1 | F508delCFTR (Homo sapiens, UniProt P13569, DEL508-508) | > 5.52 |
| Cc1ccc2c(S(=O)(=O)NC(=O)C3(c4cc(C5CCC5)cnc4OC(C)C)CC3)cccc2n1 | F508delCFTR (Homo sapiens, UniProt P13569, DEL508-508) | > 5.52 |
| O=C(NS(=O)(=O)c1ccc(-c2ccno2)s1)C1(c2ccc(Cl)cc2Cl)CC1 | F508delCFTR (Homo sapiens, UniProt P13569, DEL508-508) | < 5.00 |
| CCOCC(C)(C)c1ccc(OC)c(C2(C(=O)NS(=O)(=O)c3cccc4ncccc34)CC2)c1 | F508delCFTR (Homo sapiens, UniProt P13569, DEL508-508) | > 5.52 |
| COC(=O)c1ccc(OC)c(C2(C(=O)NS(=O)(=O)c3cccc4ncccc34)CC2)c1 | F508delCFTR (Homo sapiens, UniProt P13569, DEL508-508) | 5.00 to 5.52 |
| COc1ccc(C2CCC2)cc1C1(C(=O)NS(=O)(=O)c2cccc3nc(C)ccc23)CCC1 | F508delCFTR (Homo sapiens, UniProt P13569, DEL508-508) | 5.00 to 5.52 |
| COc1ncc(C(F)(F)F)cc1C1(C(=O)NS(=O)(=O)c2cccc3ncn(C)c23)CC1 | F508delCFTR (Homo sapiens, UniProt P13569, DEL508-508) | 5.00 to 5.52 |
| Cc1ccc(O[C@@H]2CCOC2)c(C2(C(=O)NS(=O)(=O)c3cccc4nc(C)ccc34)CC2)c1 | F508delCFTR (Homo sapiens, UniProt P13569, DEL508-508) | > 5.52 |
| COc1ccc(S(=O)(=O)NC(=O)C2(c3ccc(Cl)cc3Cl)CC2)cc1OC | F508delCFTR (Homo sapiens, UniProt P13569, DEL508-508) | < 5.00 |
| O=C(NS(=O)(=O)c1cccc(Cl)c1)C1(c2ccc(Cl)cc2Cl)CC1 | F508delCFTR (Homo sapiens, UniProt P13569, DEL508-508) | 5.00 to 5.52 |
| COc1ccc(C)cc1C1(C(=O)NS(=O)(=O)c2cccc3nc(C)ccc23)CC1 | F508delCFTR (Homo sapiens, UniProt P13569, DEL508-508) | > 5.52 |
| COc1cc(C2CCC2)cc(OC)c1C1(C(=O)NS(=O)(=O)c2cccc3ncccc23)CC1 | F508delCFTR (Homo sapiens, UniProt P13569, DEL508-508) | 5.00 to 5.52 |
| COc1ncc(C(F)(F)F)cc1C1(C(=O)NS(=O)(=O)c2cccc3[nH]ncc23)CC1 | F508delCFTR (Homo sapiens, UniProt P13569, DEL508-508) | 5.00 to 5.52 |
| Cc1ccc2c(S(=O)(=O)NC(=O)C3(c4cc(C(F)(F)F)cnc4N(C)C)CC3)cccc2n1 | F508delCFTR (Homo sapiens, UniProt P13569, DEL508-508) | 5.00 to 5.52 |
| COc1ncc(C2CCC2)c(C)c1C1(C(=O)NS(=O)(=O)c2cccc3ccc(C)nc23)CC1 | F508delCFTR (Homo sapiens, UniProt P13569, DEL508-508) | > 5.52 |
| COc1ccc(C(C)C)cc1C1(C(=O)NS(=O)(=O)c2cccc3c2CCCN3)CC1 | F508delCFTR (Homo sapiens, UniProt P13569, DEL508-508) | > 5.52 |
| COc1cc(C2CCC2)cc(OC)c1C1(C(=O)NS(=O)(=O)c2cccc3c2ccn3C)CC1 | F508delCFTR (Homo sapiens, UniProt P13569, DEL508-508) | > 5.52 |
| Cc1ccc(C)c(C2(C(=O)NS(=O)(=O)c3cccc4nc(N)ccc34)CC2)c1 | F508delCFTR (Homo sapiens, UniProt P13569, DEL508-508) | > 5.52 |
| COc1ccc(C(C)(C)C)cc1C1(C(=O)NS(=O)(=O)c2cccc3c2CCCN3)CC1 | F508delCFTR (Homo sapiens, UniProt P13569, DEL508-508) | > 5.52 |
| O=C(NS(=O)(=O)Cc1ccccc1)C1(c2cccc(Cl)c2)CC1 | F508delCFTR (Homo sapiens, UniProt P13569, DEL508-508) | < 5.00 |
| COc1ncc(C2CCC2)c(C)c1C1(C(=O)NS(=O)(=O)c2cccc3nc(C)ccc23)CC1 | F508delCFTR (Homo sapiens, UniProt P13569, DEL508-508) | 5.00 to 5.52 |
| COc1ccc(C2CCC2)cc1C1(C(=O)NS(=O)(=O)c2cccc3c2ccn3C)CC1 | F508delCFTR (Homo sapiens, UniProt P13569, DEL508-508) | 5.00 to 5.52 |
| O=C(NS(=O)(=O)CCCCl)C1(c2ccc(Cl)cc2Cl)CC1 | F508delCFTR (Homo sapiens, UniProt P13569, DEL508-508) | < 5.00 |
